The origin of these recorded values is ChEMBL document CHEMBL5131515.

- Test system: BaF3
- protocol_summary: Antiproliferative activity against mouse BaF3 cells harboring TEL-FGFR3 assessed as cell growth inhibition by CellTiter-Glo assay
- Format: functional
property_measured: GI50 (nM)
A number alone suffices; assume nM.

input: GET /values?readout=GI50&system=BaF3&item= COc1cc(OC)c(Cl)c(Nc2ncccc2-c2ncnc(NCCN(C)C)n2)c1Cl
output: 4040

input: For BaF3, provide GI50 of COc1cc(OC)c(Cl)c(Nc2ncccc2-c2ncnc(Nc3ccc(N4CCN(C(C)=O)CC4)cc3)n2)c1Cl please.
output: 30

input: Record lookup: for BaF3, what GI50 belongs to COc1cc(OC)c(Cl)c(Nc2ncccc2-c2ncnc(Nc3cnn(CCCN(C)C)c3)n2)c1Cl ?
output: 5

input: Query the reported GI50 for BaF3; item: COc1cc(OC)c(Cl)c(Nc2ncccc2-c2ncnc(N)n2)c1Cl
output: 276

input: Which GI50 is reported with BaF3 for this entry: COc1cc(OC)c(Cl)c(Nc2ncccc2-c2ncnc(Nc3cnn(C4CCOCC4)c3)n2)c1Cl ?
output: 5

###

Exercise: for every item that follows, state its recorded pIC50.
pIC50: −log10 of the molar value.

input: Find the measured pIC50: item COc1cc(OC)c(Cl)c(Nc2ncccc2-c2ncnc(Nc3ccc(N4C[C@@H](C)N[C@@H](C)C4)cc3)n2)c1Cl , target or system Fibroblast growth factor receptor 2 (Homo sapiens, UniProt P21802).
output: > 9.30

input: Notebook entry, Fibroblast growth factor receptor 2 (Homo sapiens, UniProt P21802) assay: pIC50 of CCN1CCN(c2cccc(Nc3ncnc(-c4cccnc4Nc4c(Cl)c(OC)cc(OC)c4Cl)n3)c2)CC1 = ?
output: > 9.30

###

- measurement_target: CYP1A2 (Homo sapiens, UniProt P05177)
- Sequence (P05177 whole entry): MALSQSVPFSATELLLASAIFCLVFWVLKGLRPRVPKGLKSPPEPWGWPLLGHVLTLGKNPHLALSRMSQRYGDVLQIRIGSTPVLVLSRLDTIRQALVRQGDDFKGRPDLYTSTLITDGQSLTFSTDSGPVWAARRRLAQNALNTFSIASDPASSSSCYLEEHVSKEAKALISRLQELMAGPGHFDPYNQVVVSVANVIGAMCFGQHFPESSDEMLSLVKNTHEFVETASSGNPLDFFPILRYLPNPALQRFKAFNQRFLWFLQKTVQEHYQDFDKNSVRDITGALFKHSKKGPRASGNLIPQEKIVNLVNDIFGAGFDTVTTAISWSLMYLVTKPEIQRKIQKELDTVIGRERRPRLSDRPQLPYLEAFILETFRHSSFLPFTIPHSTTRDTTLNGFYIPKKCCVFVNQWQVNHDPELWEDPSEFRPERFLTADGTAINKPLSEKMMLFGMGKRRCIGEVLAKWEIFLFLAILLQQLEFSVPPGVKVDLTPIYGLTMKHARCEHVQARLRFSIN
- protocol_summary: Inhibition of CYP1A2 (unknown origin) assessed as remaining activity at 10 uM relative to control
- Type: ADME
- condition_parameters: read-out: Activity
Kindly supply the reported activity at 10 µM values for the records listed here.
Answers without a unit are incomplete; give the number and then its unit.

input: Can you look up the measured activity at 10 µM of COc1cc(OC)c(Cl)c(Nc2ncccc2-c2ncnc(Nc3cnn(C4CCN(C(C)C)CC4)c3)n2)c1Cl for me?
output: 75.9%

input: Quick check: activity at 10 µM of COc1cc(OC)c(Cl)c(Nc2ncccc2-c2ncnc(Nc3ccc(N4C[C@@H](C)N[C@@H](C)C4)cc3)n2)c1Cl ?
output: 72.6%

input: What activity at 10 µM value was documented for this compound, COc1cc(OC)c(Cl)c(Nc2ncccc2-c2ncnc(Nc3cnn(C4CCNCC4)c3)n2)c1Cl ?
output: 72.8%

input: For CCN1CCN(c2ccc(Nc3cc(N(C)C(=O)Nc4c(Cl)c(OC)cc(OC)c4Cl)ncn3)cc2)CC1 [INFIGRATINIB] , what is its reported activity at 10 µM?
output: 77.3%

###

- measurement_target: Fibroblast growth factor receptor 3 (Homo sapiens)
- Sequence (P22607 whole entry): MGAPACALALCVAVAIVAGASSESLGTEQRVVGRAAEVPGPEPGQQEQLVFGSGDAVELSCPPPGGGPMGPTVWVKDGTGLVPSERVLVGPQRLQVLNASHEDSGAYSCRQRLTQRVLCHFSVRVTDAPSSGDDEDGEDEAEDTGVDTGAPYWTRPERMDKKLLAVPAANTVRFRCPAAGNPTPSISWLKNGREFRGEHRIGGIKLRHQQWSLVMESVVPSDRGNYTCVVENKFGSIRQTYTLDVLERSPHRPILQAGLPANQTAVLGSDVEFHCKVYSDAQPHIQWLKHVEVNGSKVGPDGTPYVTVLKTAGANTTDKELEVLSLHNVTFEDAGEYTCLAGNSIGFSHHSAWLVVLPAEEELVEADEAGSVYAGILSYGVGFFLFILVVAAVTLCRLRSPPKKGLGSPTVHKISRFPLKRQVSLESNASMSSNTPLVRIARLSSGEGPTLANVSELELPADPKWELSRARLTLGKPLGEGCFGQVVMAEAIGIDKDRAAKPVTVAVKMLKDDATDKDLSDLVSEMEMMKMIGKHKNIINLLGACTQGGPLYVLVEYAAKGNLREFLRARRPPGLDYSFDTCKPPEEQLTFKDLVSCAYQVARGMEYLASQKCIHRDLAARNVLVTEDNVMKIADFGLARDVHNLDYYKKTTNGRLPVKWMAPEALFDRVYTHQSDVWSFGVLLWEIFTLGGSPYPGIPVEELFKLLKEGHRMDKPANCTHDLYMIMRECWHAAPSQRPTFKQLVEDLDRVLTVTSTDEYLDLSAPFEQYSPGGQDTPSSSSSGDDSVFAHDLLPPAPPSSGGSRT
Please provide measured IC50 for the entries that follow.
// note: answer is a bare numeric in nM

input: // lookup IC50 | system=Fibroblast growth factor receptor 3 (Homo sapiens) | key= COc1cc(OC)c(Cl)c(Nc2ncccc2-c2ncnc(Nc3ccc(N4CCN(C(C)=O)CC4)cc3)n2)c1Cl
output: 8.05

input: Value wanted: IC50 (Fibroblast growth factor receptor 3 (Homo sapiens)) of entry CCN1CCN(c2cccc(Nc3ncnc(-c4cccnc4Nc4c(Cl)c(OC)cc(OC)c4Cl)n3)c2)CC1
output: 0.58

input: Reported IC50 for Fibroblast growth factor receptor 3 (Homo sapiens), given COc1cc(OC)c(Cl)c(Nc2ncccc2-c2ncnc(Nc3ccc(N4CCOCC4)nc3)n2)c1Cl ?
output: 8.62

input: What is its IC50 for Fibroblast growth factor receptor 3 (Homo sapiens)? Entry: COc1cc(OC)c(Cl)c(Nc2ncccc2-c2ncnc(N)n2)c1Cl
output: 11.2

input: Lookup: IC50 / Fibroblast growth factor receptor 3 (Homo sapiens) / COc1cc(OC)c(Cl)c(Nc2ncccc2-c2ncnc(Nc3cnn(CCCN(C)C)c3)n2)c1Cl
output: 1.19

###

- measurement_target: Fibroblast growth factor receptor 2 (Homo sapiens, UniProt P21802, V564F)
- Sequence (P21802 22-821 V564F limits assumed): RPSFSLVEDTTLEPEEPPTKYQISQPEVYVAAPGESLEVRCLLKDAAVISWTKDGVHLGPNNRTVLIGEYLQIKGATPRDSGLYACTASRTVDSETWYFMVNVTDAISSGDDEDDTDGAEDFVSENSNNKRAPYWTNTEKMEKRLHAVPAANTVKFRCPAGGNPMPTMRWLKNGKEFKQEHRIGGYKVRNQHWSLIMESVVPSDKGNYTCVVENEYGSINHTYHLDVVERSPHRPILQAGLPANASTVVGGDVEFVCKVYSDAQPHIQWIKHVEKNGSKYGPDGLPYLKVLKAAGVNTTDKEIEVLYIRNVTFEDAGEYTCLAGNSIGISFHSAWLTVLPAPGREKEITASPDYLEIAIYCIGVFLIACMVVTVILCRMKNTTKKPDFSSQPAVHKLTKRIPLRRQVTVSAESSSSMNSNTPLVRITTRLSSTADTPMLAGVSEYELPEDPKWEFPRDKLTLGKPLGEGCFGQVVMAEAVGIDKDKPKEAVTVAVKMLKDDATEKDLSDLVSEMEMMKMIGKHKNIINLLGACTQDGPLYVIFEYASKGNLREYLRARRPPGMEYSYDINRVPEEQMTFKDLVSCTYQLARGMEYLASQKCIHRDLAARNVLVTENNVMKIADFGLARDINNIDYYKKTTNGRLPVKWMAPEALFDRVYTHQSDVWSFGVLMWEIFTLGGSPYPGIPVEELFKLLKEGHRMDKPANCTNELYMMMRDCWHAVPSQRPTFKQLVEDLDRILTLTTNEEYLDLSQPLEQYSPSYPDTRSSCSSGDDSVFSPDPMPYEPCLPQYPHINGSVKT
property_measured: IC50 (nM)
Just the number in nM, nothing appended.

input: # lookup: IC50 of C=CCn1cc(Nc2ncnc(-c3cccnc3Nc3c(Cl)c(OC)cc(OC)c3Cl)n2)cn1
output: 3090

input: Name the reported IC50 value associated with the compound CCN1CCN(c2cccc(Nc3ncnc(-c4cccnc4Nc4c(Cl)c(OC)cc(OC)c4Cl)n3)c2)CC1
output: 578

input: Request the reported IC50 associated with COc1cc(OC)c(Cl)c(Nc2ncccc2-c2ncnc(Nc3ccc(N4CCC(O)CC4)cc3)n2)c1Cl
output: 2160

input: Which measured IC50 value corresponds to COc1cc(N2CCN(C)CC2)ccc1Nc1ncnc(-c2cccnc2Nc2c(Cl)c(OC)cc(OC)c2Cl)n1 ?
output: 2640

input: Fill in the blank: the reported IC50 of COc1cc(N2C[C@@H](C)N[C@@H](C)C2)ccc1Nc1ncnc(-c2cccnc2Nc2c(Cl)c(OC)cc(OC)c2Cl)n1 is ____.
output: 3560

input: Which value of IC50 has been reported for COc1cc(OC)c(Cl)c(Nc2ncccc2-c2ncnc(Nc3cnn(C4CCN(C(C)C)CC4)c3)n2)c1Cl in the records?
output: 189

input: Please report the recorded IC50 for COc1cc(OC)c(Cl)c(Nc2ncccc2-c2ncnc(Nc3ccc(N4C[C@@H](C)N[C@@H](C)C4)cc3)n2)c1Cl .
output: 363

input: Data request, read-out IC50, for COc1cc(OC)c(Cl)c(Nc2ncccc2-c2ncnc(Nc3cnn(C)c3)n2)c1Cl
output: 2840

input: Entry COc1cc(OC)c(Cl)c(Nc2ncccc2-c2ncnc(Nc3cnn(CCCN(C)C)c3)n2)c1Cl has what IC50?
output: 1110

input: Endpoint output: IC50 of COc1cc(OC)c(Cl)c(Nc2ncccc2-c2ncnc(Nc3ccc(N4CCN(C(C)=O)CC4)cc3)n2)c1Cl . Value?
output: 3010

input: GET /values?readout=IC50&item= COc1cc(OC)c(Cl)c(Nc2ncccc2-c2ncnc(Nc3cnn(C4CCOCC4)c3)n2)c1Cl
output: 2770

input: So what does the record say about IC50 for COc1cc(OC)c(Cl)c(Nc2ncccc2-c2ncnc(Nc3cnn(C4CCNCC4)c3)n2)c1Cl ?
output: 727

###

- protocol_summary: Antiproliferative activity against mouse BaF3 cells assessed as cell growth inhibition by CellTiter-Glo assay
- condition_parameters: BaF3 cells
property_measured: GI50

input: Look at this compound and give its reported GI50. COc1cc(N2CCN(C)CC2)ccc1Nc1ncnc(-c2cccnc2Nc2c(Cl)c(OC)cc(OC)c2Cl)n1
output: 2.79 µM

input: What does the data say about its GI50? Entry: COc1cc(OC)c(Cl)c(Nc2ncccc2-c2ncnc(Nc3ccc(N4CCN(C(C)=O)CC4)cc3)n2)c1Cl
output: > 5 µM

input: Sample COc1cc(OC)c(Cl)c(Nc2ncccc2-c2ncnc(Nc3ccc(N4CCC(O)CC4)cc3)n2)c1Cl — what was its GI50?
output: > 5 µM

input: I'd like to know its GI50. The compound in question is COc1cc(OC)c(Cl)c(Nc2ncccc2-c2ncnc(Nc3ccc(N4CCOCC4)nc3OC)n2)c1Cl
output: > 5 µM

input: Quick one: GI50 of COc1cc(OC)c(Cl)c(Nc2ncccc2-c2ncnc(N)n2)c1Cl ?
output: > 5 µM

input: Fill blank: measured GI50 of the compound COc1cc(OC)c(Cl)c(Nc2ncccc2-c2ncnc(Nc3ccccc3)n2)c1Cl is ____.
output: > 5 µM

input: Query: GI50; subject: CCN1CCN(c2cccc(Nc3ncnc(-c4cccnc4Nc4c(Cl)c(OC)cc(OC)c4Cl)n3)c2)CC1
output: 3.63 µM

input: What value of measured GI50 is listed for COc1cc(OC)c(Cl)c(Nc2ncccc2-c2ncnc(Nc3ccc(N4CCOCC4)nc3)n2)c1Cl ?
output: > 5 µM

input: Given COc1cc(OC)c(Cl)c(Nc2ncccc2-c2ncnc(Nc3ccc(N(C)C)cc3)n2)c1Cl , state its recorded GI50.
output: > 5 µM
